Attribute: inhibition
- Study Target: UniProt:P41594
- Assay Info: Displacement of [3H]M-MPEP from mGluR5 (unknown origin) at 1 uM measured after 60 mins relative to control
Dear colleague, please return just the value in %, with no unit written.

Sample O=S(=O)(c1cc(Cl)cc(Cl)c1)c1cnc2cc(F)ccc2c1N1CCOCC1 — what was its inhibition?
74

Reported inhibition for COc1ccc2ncc(S(=O)(=O)c3ccc(C)c(Cl)c3)c(N3CCC(C)CC3)c2c1 : what is it?
85

Look at this compound and give its reported inhibition. CC1CCN(c2c(S(=O)(=O)c3ccc(Cl)cc3)cnc3ccc(Cl)cc23)CC1
92

Dear colleague, I am looking for the recorded inhibition of the following compound: COc1ccc2ncc(S(=O)(=O)c3ccc(C)cc3)c(N3CCC(C)CC3)c2c1
90

====

Measured inhibition of individual entries
- Study Target: Metabotropic glutamate receptor 5 (Homo sapiens)
- Assay Info: Displacement of [3H]M-MPEP from mGluR5 (unknown origin) at 1 uM measured after 60 mins relative to control
# output: bare number, implied unit %

Please report the recorded inhibition for Cc1ccc2ncc(S(=O)(=O)c3cccc(Cl)c3)c(N3CCC(C)CC3)c2c1 .
91

====

Each entry below carries its reported inhibition.
- Study Target: Metabotropic glutamate receptor 5 (Homo sapiens)
- Assay Info: Displacement of [3H]M-MPEP from mGluR5 (unknown origin) at 1 uM measured after 60 mins relative to control
Answer format: numeric, % implied, no suffix.

Cc1ccc(S(=O)(=O)c2cnc3ccc(F)cc3c2N2CCC(C)CC2)cc1Cl = 91
COc1ccc2ncc(S(=O)(=O)c3ccc(OC)c(OC)c3)c(N3CCC(C)CC3)c2c1 = -3

For the molecule Cc1ccc2ncc(S(=O)(=O)c3cccc(Cl)c3)c(N3CCOCC3)c2c1 , what inhibition is on record?
44

Could you tell me which inhibition is on file for Cc1ccc(S(=O)(=O)c2cnc3ccc(F)cc3c2N2CCOCC2)cc1F ?
28

Query: inhibition; subject: COc1cccc(S(=O)(=O)c2cnc3ccc(F)cc3c2N2CCC(C)CC2)c1
90

Which inhibition is reported for this molecule? Cc1ccc(S(=O)(=O)c2cnc3cc(F)ccc3c2N2CCOCC2)cc1Cl
84

// inhibition lookup, key: Cc1ccc(S(=O)(=O)c2cnc3cc(F)ccc3c2N2CCC(C)CC2)cc1F
89

Field request: inhibition | item: Cc1cc(C)cc(S(=O)(=O)c2cnc3ccc(C)cc3c2N2CCC(C)CC2)c1
80

====

- Study Target: Metabotropic glutamate receptor 5 (Homo sapiens)
- Assay Info: Displacement of [3H]M-MPEP from mGluR5 (unknown origin) at 1 uM measured after 60 mins relative to control
Reported inhibition values follow for various compounds
Please respond with the number in % and leave the unit unwritten.

COc1ccc(S(=O)(=O)c2cnc3ccc(F)cc3c2N2CCC(C)CC2)cc1OC = 54

Look at this compound and give its reported inhibition. COc1ccc(S(=O)(=O)c2cnc3cc(F)ccc3c2N2CCOCC2)cc1Cl
53

Please look up its inhibition: O=S(=O)(c1ccc(Cl)c(Cl)c1)c1cnc2cc(Cl)ccc2c1N1CCOCC1
86

State the recorded inhibition for this entry: COc1ccc(S(=O)(=O)c2cnc3ccc(C)cc3c2N2CCOCC2)cc1Cl
58

Any idea what its inhibition is? The compound is CC1CCN(c2c(S(=O)(=O)c3ccc(Cl)cc3)cnc3cc(F)ccc23)CC1
90

Data request, read-out inhibition, for O=S(=O)(c1ccc(F)cc1)c1cnc2cc(Cl)ccc2c1N1CCC(CO)CC1
75

====

- Study Target: UniProt:P41594
- Assay Info: Displacement of [3H]M-MPEP from mGluR5 (unknown origin) at 1 uM measured after 60 mins relative to control
Observed Property: inhibition (%)
Provide the reading as a plain figure in %.

Consider the reported inhibition for these compounds:
Cc1ccc2ncc(S(=O)(=O)c3ccc(C#N)cc3)c(N3CCOCC3)c2c1 = 48
O=S(=O)(c1ccccc1)c1cnc2ccccc2c1N1CCCC1 = 7.1
O=S(=O)(c1ccc(F)cc1)c1cnc2cc(Cl)ccc2c1N1CCOCC1 = 14

Report inhibition for CC1CCN(c2c(S(=O)(=O)c3ccc(F)c(F)c3)cnc3ccc(F)cc23)CC1 please.
82

What does the data say about its inhibition? Entry: CC1CCN(c2c(S(=O)(=O)c3ccccc3)cnc3ccccc23)CC1
89.2

I would be grateful if you could share the reported inhibition for CC1CCN(c2c(S(=O)(=O)c3ccccc3)cnc3cc(F)ccc23)CC1 .
87

Given COc1ccc(S(=O)(=O)c2cnc3cc(F)ccc3c2N2CCC(C)CC2)cc1OC , state its recorded inhibition.
83

Which value of inhibition has been reported for Cc1ccc2ncc(S(=O)(=O)c3ccc(F)cc3)c(N3CCOCC3)c2c1 in the records?
18

For Cc1ccc(S(=O)(=O)c2cnc3cc(F)ccc3c2N2CCOCC2)cc1F , what is its reported inhibition?
51

Given COc1ccc(S(=O)(=O)c2cnc3ccc(Cl)cc3c2N2CCC(C)CC2)cc1Cl , state its recorded inhibition.
46

Given the compound Cc1ccc2ncc(S(=O)(=O)c3cc(Cl)cc(Cl)c3)c(N3CCC(C)CC3)c2c1 , what is its reported inhibition?
75

====

- Study Target: Metabotropic glutamate receptor 5 (Homo sapiens, UniProt P41594)
- Sequence (P41594 21-1212 limits assumed): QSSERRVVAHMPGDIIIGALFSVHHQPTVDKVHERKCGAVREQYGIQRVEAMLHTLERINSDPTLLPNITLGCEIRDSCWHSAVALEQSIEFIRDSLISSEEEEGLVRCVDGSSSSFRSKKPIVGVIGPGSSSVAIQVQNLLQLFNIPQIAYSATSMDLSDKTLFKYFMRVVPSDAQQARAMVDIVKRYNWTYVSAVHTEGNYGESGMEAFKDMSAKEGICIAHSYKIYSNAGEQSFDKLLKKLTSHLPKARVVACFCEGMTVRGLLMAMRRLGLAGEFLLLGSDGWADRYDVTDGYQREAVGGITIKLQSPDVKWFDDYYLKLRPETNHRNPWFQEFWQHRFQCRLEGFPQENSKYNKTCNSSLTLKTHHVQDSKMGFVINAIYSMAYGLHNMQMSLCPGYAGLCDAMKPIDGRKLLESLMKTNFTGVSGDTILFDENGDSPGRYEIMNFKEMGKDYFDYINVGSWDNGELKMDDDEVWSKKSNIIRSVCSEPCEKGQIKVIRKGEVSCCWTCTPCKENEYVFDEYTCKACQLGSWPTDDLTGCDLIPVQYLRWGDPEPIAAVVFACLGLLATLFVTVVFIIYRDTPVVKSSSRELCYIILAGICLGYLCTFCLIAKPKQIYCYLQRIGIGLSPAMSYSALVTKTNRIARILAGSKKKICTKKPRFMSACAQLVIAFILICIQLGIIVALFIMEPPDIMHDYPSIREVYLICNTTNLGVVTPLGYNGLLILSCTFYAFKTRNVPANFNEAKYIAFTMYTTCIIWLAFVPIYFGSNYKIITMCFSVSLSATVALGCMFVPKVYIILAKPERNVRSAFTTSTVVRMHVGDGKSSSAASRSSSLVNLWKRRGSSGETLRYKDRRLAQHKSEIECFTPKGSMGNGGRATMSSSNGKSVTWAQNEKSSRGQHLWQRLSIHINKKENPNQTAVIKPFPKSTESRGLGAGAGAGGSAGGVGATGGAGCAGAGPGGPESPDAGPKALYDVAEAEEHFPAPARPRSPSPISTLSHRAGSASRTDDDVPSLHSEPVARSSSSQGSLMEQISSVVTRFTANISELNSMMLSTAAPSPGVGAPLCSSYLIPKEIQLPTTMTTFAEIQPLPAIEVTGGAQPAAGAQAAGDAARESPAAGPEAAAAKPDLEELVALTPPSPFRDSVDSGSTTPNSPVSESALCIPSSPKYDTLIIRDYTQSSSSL
- Assay Info: Displacement of [3H]M-MPEP from mGluR5 (unknown origin) at 1 uM measured after 60 mins relative to control
A collection of compounds and their measured inhibition
Answer format: numeric, % implied, no suffix.

State the recorded inhibition for this entry: Cc1ccc(S(=O)(=O)c2cnc3ccc(Cl)cc3c2N2CCC(C)CC2)cc1C
84

# lookup: inhibition of O=S(=O)(c1ccc(Cl)c(Cl)c1)c1cnc2c(F)cccc2c1N1CCOCC1
86

====

- Study Target: UniProt P41594
- Assay Info: Displacement of [3H]M-MPEP from mGluR5 (unknown origin) at 1 uM measured after 60 mins relative to control
Observed Property: inhibition (%)
All answers are understood in %, so give the number only.

Recorded inhibition, per entry:
Cc1ccc(S(=O)(=O)c2cnc3ccc(Cl)cc3c2N2CCOCC2)cc1C = 90
CC1CCN(c2c(S(=O)(=O)c3cccc(Cl)c3)cnc3cc(Cl)ccc23)CC1 = 92
N#Cc1ccc(S(=O)(=O)c2cnc3ccc(Cl)cc3c2N2CCOCC2)cc1 = 4
CC1CCN(c2c(S(=O)(=O)c3ccc(Cl)cc3)cnc3ccc(F)cc23)CC1 = 80

Please look up its inhibition: Cc1ccc2ncc(S(=O)(=O)c3cc(F)cc(F)c3)c(N3CCC(C)CC3)c2c1
72

====

- Study Target: Metabotropic glutamate receptor 5 (Homo sapiens)
- Assay Info: Displacement of [3H]M-MPEP from mGluR5 (unknown origin) at 1 uM measured after 60 mins relative to control
Observed Property: inhibition (%)
Entry rule: numbers only, all in %.

Requested read-out inhibition, target or system Metabotropic glutamate receptor 5 (Homo sapiens), entry Cc1ccc(S(=O)(=O)c2cnc3cc(F)ccc3c2N2CCC(C)CC2)cc1Cl
93

Notebook entry, Metabotropic glutamate receptor 5 (Homo sapiens) assay: inhibition of COc1ccc2ncc(S(=O)(=O)c3cccc(F)c3)c(N3CCOCC3)c2c1 = ?
-3

Form: Entry = COc1ccc(S(=O)(=O)c2cnc3ccc(C)cc3c2N2CCC(C)CC2)cc1Cl | System = Metabotropic glutamate receptor 5 (Homo sapiens) | inhibition = ____
93

Request - read-out inhibition | tested on Metabotropic glutamate receptor 5 (Homo sapiens) | compound CC1CCN(c2c(S(=O)(=O)c3ccc(F)c(F)c3)cnc3ccc(Cl)cc23)CC1
72

What reported inhibition corresponds to Cc1ccc(S(=O)(=O)c2cnc3ccc(C)cc3c2N2CCOCC2)cc1 on Metabotropic glutamate receptor 5 (Homo sapiens)?
66

Reported inhibition for Metabotropic glutamate receptor 5 (Homo sapiens), given CC1CCN(c2c(S(=O)(=O)c3ccc(F)c(Cl)c3)cnc3ccc(F)cc23)CC1 ?
95

Provide value of inhibition for this record tested with Metabotropic glutamate receptor 5 (Homo sapiens): CC1CCN(c2c(S(=O)(=O)c3cc(F)cc(F)c3)cnc3cc(Cl)ccc23)CC1
94

Param readout = inhibition; param system = Metabotropic glutamate receptor 5 (Homo sapiens); param query = O=S(=O)(c1cc(Cl)cc(Cl)c1)c1cnc2c(F)cccc2c1N1CCOCC1 ; response: value
77

Form: Entry = Cc1ccc2ncc(S(=O)(=O)c3ccc(C)c(Cl)c3)c(N3CCC(C)CC3)c2c1 | System = Metabotropic glutamate receptor 5 (Homo sapiens) | inhibition = ____
91

====

- Study Target: Metabotropic glutamate receptor 5 (Homo sapiens, UniProt P41594)
- Assay Info: Displacement of [3H]M-MPEP from mGluR5 (unknown origin) at 1 uM measured after 60 mins relative to control
inhibition below 90% gives false (0); inhibition at or above it gives true (1).

Solved cases (5 shown):
CC1CCN(c2c(S(=O)(=O)c3cc(F)cc(F)c3)cnc3ccc(Cl)cc23)CC1 = true (1)
COc1ccc(S(=O)(=O)c2cnc3ccc(C)cc3c2N2CCOCC2)cc1 = false (0)
CC1CCN(c2c(S(=O)(=O)c3ccc(F)c(Cl)c3)cnc3cc(F)ccc23)CC1 = true (1)
Cc1ccc2ncc(S(=O)(=O)c3ccc(Cl)c(Cl)c3)c(N3CCC(C)CC3)c2c1 = false (0)
COc1cccc(S(=O)(=O)c2cnc3ccc(Cl)cc3c2N2CCC(C)CC2)c1 = false (0)

Check this compound for inhibition at or above 90%: Cc1ccc2ncc(S(=O)(=O)c3cccc(F)c3)c(N3CCC(C)CC3)c2c1
true (1)

# check: inhibition of CC1CCN(c2c(S(=O)(=O)c3ccc(C#N)cc3)cnc3cc(Cl)ccc23)CC1 is greater than or equal to 90%
false (0)

Quick check, inhibition >= 90%? N#Cc1cccc(S(=O)(=O)c2cnc3cc(F)ccc3c2N2CCSCC2)c1
false (0)

Dear colleague, could you confirm whether O=S(=O)(c1ccc(Cl)cc1)c1cnc2c(F)cccc2c1N1CCOCC1 has inhibition at or above 90%?
false (0)

For this compound, is measured inhibition 90% or higher? Cc1ccc2ncc(S(=O)(=O)c3cc(F)cc(F)c3)c(N3CCOCC3)c2c1
false (0)

Please tell me: is the compound Cc1ccc2ncc(S(=O)(=O)c3ccc(C)c(Cl)c3)c(N3CCOCC3)c2c1 at or over 90% in terms of inhibition?
false (0)

# bool: inhibition of Cc1ccc(S(=O)(=O)c2cnc3cc(F)ccc3c2N2CCOCC2)cc1C >= 90%
false (0)

Record COc1cccc(S(=O)(=O)c2cnc3cc(Cl)ccc3c2N2CCC(C)CC2)c1 ; criterion: inhibition no lower than 90%. Met?
true (1)

Reported inhibition at or above 90%? Cc1ccc(S(=O)(=O)c2cnc3ccc(C)cc3c2N2CCC(C)CC2)cc1
false (0)

Does inhibition meet or surpass 90% for COc1ccc2ncc(S(=O)(=O)c3ccc(C)c(F)c3)c(N3CCC(C)CC3)c2c1 ?
false (0)

Identify whether the reported inhibition of the following compound is 90% or greater: O=S(=O)(c1ccc(Cl)c(Cl)c1)c1cnc2cc(F)ccc2c1N1CCOCC1
false (0)

Given COc1ccc(S(=O)(=O)c2cnc3ccc(C)cc3c2N2CCC(C)CC2)cc1 , state whether its inhibition is at least 90%.
false (0)
